This document collects IC50 values reported for Tyrosine-protein kinase Lck (Homo sapiens, UniProt P06239).

- CHEMICAL_STRING: "CONC(=O)c1cc(Nc2ncnn3cc(-c4nnc(C(F)(F)S(C)(=O)=O)o4)c(C(C)C)c23)c(F)cc1F"
  IC50: "7.8 µM"

Form: molecule = CONC(=O)c1cc(Nc2ncnn3cc(NC(=O)OCCCS(C)(=O)=O)c(C(C)C)c23)c(F)cc1F ; IC50 = 5.1 µM

* * *

- TEST_NAME: Mean residence time determined after administration of 10 mg/kg dose po in mouse
- Format: ADME, organism-based
- Parameters: dose 10 mg/kg, route oral
- CONDITION_SET: in vivo
MEASUREMENT_TYPE: MRT
A complete answer gives the number followed by the unit.

The recorded MRT for CONC(=O)c1cc(Nc2ncnn3cc(-c4nnc(C(F)(F)S(C)(=O)=O)o4)c(C(C)C)c23)c(F)cc1F is 5.2 h

* * *

- MEASURED_ON: Cytochrome P450 1A2 (Homo sapiens)
- Sequence (P05177 whole entry): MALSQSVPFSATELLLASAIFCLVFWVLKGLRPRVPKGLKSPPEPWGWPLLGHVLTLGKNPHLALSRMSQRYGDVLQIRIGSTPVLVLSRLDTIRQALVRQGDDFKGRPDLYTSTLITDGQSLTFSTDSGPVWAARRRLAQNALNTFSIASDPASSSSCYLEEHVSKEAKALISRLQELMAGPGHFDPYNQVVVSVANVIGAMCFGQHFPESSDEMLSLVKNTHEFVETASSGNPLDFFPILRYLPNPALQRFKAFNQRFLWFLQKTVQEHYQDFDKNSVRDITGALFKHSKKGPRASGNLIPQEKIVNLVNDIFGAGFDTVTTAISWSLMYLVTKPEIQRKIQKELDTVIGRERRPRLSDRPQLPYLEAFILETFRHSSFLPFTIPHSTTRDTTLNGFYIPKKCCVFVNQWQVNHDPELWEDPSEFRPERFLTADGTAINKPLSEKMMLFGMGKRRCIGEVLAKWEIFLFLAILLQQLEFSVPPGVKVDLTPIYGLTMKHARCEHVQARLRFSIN
MEASUREMENT_TYPE: pIC50
A value of pIC50 is the negative decimal logarithm of a concentration given in moles per litre.

Form field, pIC50 with Cytochrome P450 1A2 (Homo sapiens), item CONC(=O)c1cc(Nc2ncnn3cc(-c4ncc(C)o4)c(C(C)C)c23)c(F)cc1F : 7.19

* * *

- TEST_NAME: Maximum plasma concentration determined after administration of 5 mg/kg dose iv in mouse
- Assay type: ADME, organism-based
- Set-up: dose 5 mg/kg, route intravenous
MEASUREMENT_TYPE: Cmax (µM)
Please respond with the number in µM and leave the unit unwritten.

In plain terms, CONC(=O)c1cc(Nc2ncnn3cc(-c4nnc(C(F)(F)S(C)(=O)=O)o4)c(C(C)C)c23)c(F)cc1F has a documented Cmax of 23.7

* * *

- MEASURED_ON: Vascular endothelial growth factor receptor (Homo sapiens, UniProt P17948+P35916+P35968)
- TEST_NAME: Inhibition of VEGF-stimulated human umbilical vein endothelial cell proliferation
- Assay type: functional, cell-based
MEASUREMENT_TYPE: IC50 (nM)
Answer with a number only, understood to be in nM.

- CHEMICAL_STRING: "CONC(=O)c1cc(Nc2ncnn3cc(-c4nc(C)no4)c(C(C)C)c23)c(F)cc1F"
  IC50 / nM: 6.8
- CHEMICAL_STRING: "CONC(=O)c1cc(Nc2ncnn3cc(-c4ncc(C)o4)c(C(C)C)c23)c(F)cc1F"
  IC50 / nM: 1.1

CCOC(=O)Nc1cn2ncnc(Nc3cc(C(=O)NOC)c(F)cc3F)c2c1C(C)C has a reported IC50 of 31

* * *

System: Vascular endothelial growth factor receptor 2 (Homo sapiens, UniProt P35968) | Read-out: IC50
Sequence (P35968 whole entry): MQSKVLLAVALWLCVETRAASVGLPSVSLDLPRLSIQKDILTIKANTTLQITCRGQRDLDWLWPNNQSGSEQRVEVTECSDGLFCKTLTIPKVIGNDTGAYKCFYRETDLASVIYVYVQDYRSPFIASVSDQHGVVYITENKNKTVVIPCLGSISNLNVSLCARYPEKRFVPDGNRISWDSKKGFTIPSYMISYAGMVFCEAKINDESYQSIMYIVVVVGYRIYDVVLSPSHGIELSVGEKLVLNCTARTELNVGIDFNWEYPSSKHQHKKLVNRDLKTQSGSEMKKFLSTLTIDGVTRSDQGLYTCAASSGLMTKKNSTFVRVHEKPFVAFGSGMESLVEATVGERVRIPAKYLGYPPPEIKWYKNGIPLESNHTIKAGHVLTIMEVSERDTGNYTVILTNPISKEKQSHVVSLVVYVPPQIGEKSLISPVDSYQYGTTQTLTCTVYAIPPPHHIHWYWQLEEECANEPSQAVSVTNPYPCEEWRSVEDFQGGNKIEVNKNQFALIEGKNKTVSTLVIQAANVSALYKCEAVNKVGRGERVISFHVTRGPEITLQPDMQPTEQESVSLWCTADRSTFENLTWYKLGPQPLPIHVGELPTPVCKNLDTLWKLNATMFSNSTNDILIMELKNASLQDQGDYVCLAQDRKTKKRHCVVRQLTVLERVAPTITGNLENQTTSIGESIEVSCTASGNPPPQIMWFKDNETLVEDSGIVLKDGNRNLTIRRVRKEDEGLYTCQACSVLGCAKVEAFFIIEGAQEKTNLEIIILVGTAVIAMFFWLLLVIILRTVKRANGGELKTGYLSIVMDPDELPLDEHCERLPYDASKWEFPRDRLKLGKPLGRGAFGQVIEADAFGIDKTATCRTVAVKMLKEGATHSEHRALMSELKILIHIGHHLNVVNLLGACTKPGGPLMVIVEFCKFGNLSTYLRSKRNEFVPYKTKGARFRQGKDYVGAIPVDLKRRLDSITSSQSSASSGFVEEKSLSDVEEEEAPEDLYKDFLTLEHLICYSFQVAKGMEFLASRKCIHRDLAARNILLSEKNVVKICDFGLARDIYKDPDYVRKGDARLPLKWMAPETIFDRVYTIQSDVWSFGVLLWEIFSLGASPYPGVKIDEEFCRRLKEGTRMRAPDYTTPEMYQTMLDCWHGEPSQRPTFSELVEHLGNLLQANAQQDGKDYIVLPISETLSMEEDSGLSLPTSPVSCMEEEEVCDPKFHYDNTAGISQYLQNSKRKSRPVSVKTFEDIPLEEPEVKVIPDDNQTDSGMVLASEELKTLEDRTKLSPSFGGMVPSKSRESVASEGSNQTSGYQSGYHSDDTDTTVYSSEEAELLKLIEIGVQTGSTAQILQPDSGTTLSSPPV
Could you give the number and then its unit, please?

Record excerpt, results attached:
- CHEMICAL_STRING: "CONC(=O)c1cc(Nc2ncnn3cc(-c4nnc(CC(F)(F)F)o4)c(C(C)C)c23)c(F)cc1F"
  MEASURED_ON: "Vascular endothelial growth factor receptor 2 (Homo sapiens, UniProt P35968)"
  OBSERVED_RESULT: "0.029 µM"
- CHEMICAL_STRING: "CCOC(=O)c1cn2ncnc(Oc3cccc(C(=O)NOC)c3)c2c1C(C)C"
  MEASURED_ON: "Vascular endothelial growth factor receptor 2 (Homo sapiens, UniProt P35968)"
  OBSERVED_RESULT: "0.27 µM"
- CHEMICAL_STRING: "CONC(=O)c1cc(Nc2ncnn3cc(-c4nnc(C5CC5)o4)c(C(C)C)c23)c(F)cc1F"
  MEASURED_ON: "Vascular endothelial growth factor receptor 2 (Homo sapiens, UniProt P35968)"
  OBSERVED_RESULT: "0.011 µM"
- CHEMICAL_STRING: "CONC(=O)c1cc(Nc2ncnn3cc(-c4nnc(C(C)C)o4)c(C(C)C)c23)c(F)cc1F"
  MEASURED_ON: "Vascular endothelial growth factor receptor 2 (Homo sapiens, UniProt P35968)"
  OBSERVED_RESULT: "0.022 µM"
- CHEMICAL_STRING: "CONC(=O)c1cc(Nc2ncnn3cc(-c4nnc(CS(C)(=O)=O)o4)c(C(C)C)c23)c(F)cc1F"
  MEASURED_ON: "Vascular endothelial growth factor receptor 2 (Homo sapiens, UniProt P35968)"
  OBSERVED_RESULT: "0.016 µM"

Short answer on Vascular endothelial growth factor receptor 2 (Homo sapiens, UniProt P35968) for CONC(=O)c1cc(Nc2ncnn3cc(-c4nnc(N(C)C)o4)c(C(C)C)c23)c(F)cc1F , IC50: 0.011 µM

GET /values?item= CCOC(=O)c1cn2ncnc(Nc3ccc(Br)c(C(=O)NOC)c3)c2c1C(C)C &system= Vascular endothelial growth factor receptor 2 (Homo sapiens, UniProt P35968) returns IC50: 0.27 µM

For the compound CCOC(=O)c1cn2ncnc(Nc3cc(C(=O)NOC)ccc3F)c2c1C(C)C , the measured IC50 on Vascular endothelial growth factor receptor 2 (Homo sapiens, UniProt P35968) was 0.034 µM

Per the reported Vascular endothelial growth factor receptor 2 (Homo sapiens, UniProt P35968) data, CONC(=O)c1cc(Nc2ncnn3cc(-c4nnc(CC5CC5)o4)c(C(C)C)c23)c(F)cc1F has IC50 of 0.017 µM

IC50 for Vascular endothelial growth factor receptor 2 (Homo sapiens, UniProt P35968) with input CONC(=O)c1cc(Nc2ncnn3cc(-c4ncc(C)o4)c(C(C)C)c23)c(F)cc1F equals 0.008 µM

Note to self: IC50 of CCc1nnc(-c2cn3ncnc(Nc4cc(C(=O)NOC)c(F)cc4F)c3c2C(C)C)o1 with Vascular endothelial growth factor receptor 2 (Homo sapiens, UniProt P35968) was 0.017 µM

CONC(=O)c1cc(Nc2ncnn3cc(-c4noc(C)n4)c(C(C)C)c23)c(F)cc1F tested on Vascular endothelial growth factor receptor 2 (Homo sapiens, UniProt P35968) gave IC50: 0.11 µM
